Kindly supply the reported AUC (SAP), lowering of systolic arterial blood pressure values for the records listed here.
test system: arterial, central venous and pulmonary artery blood pressure in a conscious dog; assay: Effects on blood pressure in a conscious dog; assay type: in vivo; parameters: unit not given here; details: intravenous, 13.4 μg/kg disulphide compounds
One number for each entry.

{"columns": ["SMILES_REPRESENTATION", "RECORDED_MEASUREMENT"],
 "data": [
  ["CNC(=O)[C@H](CSSC[C@H](NC(=O)C(C)(C)CO[N+](=O)[O-])C(=O)NC)NC(=O)C(C)(C)CO[N+](=O)[O-]", 41.9]
]}

# batch: return AUC (SAP), lowering of systolic arterial blood pressure for each of the 4 compounds below
1. CC(C)(CO[N+](=O)[O-])C(=O)N[C@@H](CSSC[C@H](NC(=O)C(C)(C)CO[N+](=O)[O-])C(=O)O)C(=O)O
2. CC(C)(CO[N+](=O)[O-])C(=O)N[C@@H](CSSC[C@H](NC(=O)C(C)(C)CO[N+](=O)[O-])C(=O)N1CCCCC1)C(=O)N1CCCCC1
3. CC(C)(CO[N+](=O)[O-])C(=O)N[C@@H](CSSC[C@H](NC(=O)C(C)(C)CO[N+](=O)[O-])C(N)=O)C(N)=O
4. CCOC(=O)[C@H](CSSC[C@H](NC(=O)C(C)(C)CO[N+](=O)[O-])C(=O)OCC)NC(=O)C(C)(C)CO[N+](=O)[O-]

Marked response:
17.3
10.4
55.3
94.1
